IC50 listing for selected molecules.
# study.system: HLA-DRB1*0401 (Homo sapiens (Human), UniProt P01903+P01911, A100K/A169T/DEL228-266/F76Y/I96L/K127E/L162R/M171V/N62H/P40V/Q125Y/R42H/S133A/S149N/S66Y/V115G/V209L/W38E)
# assay.overview: HLA-DR4 HTRF assay
# condition.info: inhibition of loading of Alexa Fluor 647-labeled Cit-CII peptide onto HLA-DR4 (CLIP cleaved)
Write it as a number; the unit nM goes unstated.

molecule="COc1cnccc1[C@@H](Oc1ccc2c(c1)OCCC2=O)c1ccc(C(N)=O)cc1 (single isomer, unassigned) [Example 23b]" measured_quantity=IC50 val=680
molecule="COc1ccccc1[C@@H](Oc1ccc2c(c1)OCCC2=O)c1ccncc1 (single isomer, unassigned) [Example 14b]" measured_quantity=IC50 val=1900
molecule="NC(=O)c1ccc([C@@H](Oc2ccc3c(c2)O[C@H](c2ccccc2)CC3=O)c2ccncc2)cc1 (single isomer, unassigned) [Example 43b]" measured_quantity=IC50 val=4900
molecule="Cc1c(O[C@H](c2ccc(Cl)cc2)c2ccc(C(N)=O)nc2)ccc2c1OCCC2=O (single isomer, unassigned) [Example 64a]" measured_quantity=IC50 val=1700
molecule="N#Cc1ccccc1[C@@H](Oc1ccc2c(c1)OCCC2=O)c1ccncc1 (single isomer, unassigned)" measured_quantity=IC50 val=960

Consider now this further molecule.
Lab note: COc1ccc(COc2cccc([C@H](Oc3ccc4c(c3)OCCC4=O)c3ccncc3)c2)cc1 (single isomer, unassigned) gave IC50 of 6900
